- System: modified version of the GPR119 receptor (94% identity to human receptor)
- assay-details: cAMP production assay (LANCE cAMP kit, TR-FRET) in HEK-293 cells
- Format: cell-based
- assay-context: increase in cAMP relative to basal levels; agonist activity if 1.5-fold or greater
- Procedure: The assay utilized HEK-293 cells that stably express a modified version of the GPR119 receptor (94% identity to human receptor), under the control of a CMV promoter containing a tet-on element for tetracycline-inducible expression. GPR119 agonist-induced cyclic AMP (cAMP) production was measured in this cell line using the LANCE cAMP kit (Perkin Elmer, Waltham, Mass.). […] Cellular cAMP levels were then determined by interpolation of raw signal data using a cAMP standard curve. […]
Fold over baseline reference
// return a plain number; no unit text

For orientation, consider the following solved cases.
IN: Give Fold over baseline for the following molecule: "CS(=O)(=O)c1ccc(N[C@H]2CCCN(C3CCN(c4nc(C(F)(F)F)ns4)CC3)C2=O)c(F)c1"
OUT: 2.1

IN: Give Fold over baseline for the following molecule: "CC(C)c1nsc(N2CCC(N3CC[C@H](Nc4ccc(S(=O)(=O)C(C)C)cc4F)C3=O)CC2)n1"
OUT: 4.7

Turning now to a further molecule:
IN: Give Fold over baseline for the following molecule: "Cc1cc(O[C@H]2CCN(C3CCN(c4nc(C(C)C)ns4)CC3)C2=O)c(F)cc1C#N"
OUT: 3.5
